The origin of these recorded values is the supplement of paper PMC10567573.

Please go through the items and note down their protein stability index.
B1: TPD52L2 (parent)
chain: EAEEEELRAELTKVEEEIVTLRQV

Variants of: B1
Assay: protein stability index of a GFP-peptide fusion (GPS, HEK-293T) (PSI 1-6); higher = more stable;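 further: lentivirally expressed fusions sorted by FACS into six bins by GFP to DsRed ratio, PSI derived from sequencing read proportions per bin multiplied by bin number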
Conditions: c terminus: a fixed tail appended
Numbers only.

RESIDUE CODES | protein stability index
EAEEEELRAELTKVEEEIHTLRQV | 3.9
EAEEEELRAELTKVEEEIATLRQV | 3.96
EAEEEELRAELTKVEEEIVTLRKV | 4.04

Batch request: protein stability index per item, same order as input.
1. EAEEEELRAELTKVEEEIVVLRQV
2. EAEEEELRAELTKVEEEIVALRQV

## Output
1. 3.92
2. 3.9
